Source: ChEMBL document CHEMBL4330127

Target: UDP-glucuronosyltransferase 2B7 (Homo sapiens)
Sequence (P16662 whole entry): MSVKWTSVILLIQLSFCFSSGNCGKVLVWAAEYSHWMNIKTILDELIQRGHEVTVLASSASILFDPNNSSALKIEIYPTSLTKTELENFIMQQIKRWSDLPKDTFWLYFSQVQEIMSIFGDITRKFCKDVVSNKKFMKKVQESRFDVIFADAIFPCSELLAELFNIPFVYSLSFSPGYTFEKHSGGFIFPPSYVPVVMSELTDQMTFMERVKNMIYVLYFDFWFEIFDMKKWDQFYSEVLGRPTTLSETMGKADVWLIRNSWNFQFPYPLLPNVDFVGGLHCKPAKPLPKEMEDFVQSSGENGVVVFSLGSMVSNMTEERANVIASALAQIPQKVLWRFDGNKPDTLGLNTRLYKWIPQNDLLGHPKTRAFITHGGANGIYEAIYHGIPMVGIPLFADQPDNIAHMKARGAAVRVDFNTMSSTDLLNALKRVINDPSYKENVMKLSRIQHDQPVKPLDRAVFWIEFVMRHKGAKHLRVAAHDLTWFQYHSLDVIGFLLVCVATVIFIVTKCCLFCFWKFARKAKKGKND
readout.name: IC50

Exercise: Identify measured IC50 corresponding to "Cl.O=C1c2ccccc2C(=O)c2c1cccc2-c1cnn(C2CCNCC2)c1"
Solution: > 50 µM

* * *

Test: AUC (0 to infinity) in rat at 10 mg/kg, po
Type: ADME, organism-based
Design: dose 10 mg/kg, route oral, time infinity
Settings: in vivo
readout.name: AUC(0-inf) (ng·h/mL)
Could you give me the number in ng·h/mL? Just the number is fine.

Exercise: Recall and state the measured AUC(0-inf) for "Cl.O=C1c2ccccc2C(=O)c2c1cccc2-c1cnn(C2CCNCC2)c1" .
Solution: 18500
